- tested_on: SARS-CoV-2 full length spike protein, wild type, expressed on the surface of CHO cells (SARS-CoV-2, UniProt P0DTC2 14-1273)
measure: median fluorescence fold over isotype control (fold over isotype)
Give bare numbers, in fold over isotype.

Consider the following items and state reported median fluorescence fold over isotype control for each.
1. antibody 517 (antibody, V domains shown) VH: QVQLVESGGGVVQPGRSLRLSCAASGFNLSNYAMHWVRQASGKGLEWVSLISYDGSIKYYTDSVKGRFTVSGDNSKNTLFLQMNSLRADDSALYYCVRGGVSGPNSFDMWGQGTTVTVSS VL: DVVMTQSPLSLPVTLGQPASISCRSSQSLVYSDGNTYVNWFQQRPGQSPRRLIYQVSIRASGVPDRFSGSGSGTDFALKISRVEAEDVGVYYCMQGTHWPVTFGQGTKVEIK
2. antibody 527 (antibody, V domains shown) VH: QLQLQESGPGLVKPSETLSLTCTVSGGSISSSSYYWGWIRQPPGKGLEWIGSIYYSGSTYYNPSLKSRVTISVDTSKNQFSLKLSSVTAADTAMYYCASHVVVIASSYWCFDLWGRGTLVTVSS VL: QSALTQPASVSGSPGQSITISCTGTSSDVGGYNYVSWYQQHPGKAPKLMIYDVSNRPSGVSNRFSGSKSGNTASLTISGLQAEDEADYYCSSYTSISTWVFGGGTKLTVL
3. antibody 509 (antibody, V domains shown) VH: QVQLVESGGGVVQPGRSLRLSCAASGFNLSSYAMHWVRQASGKGLEWVSLISYDGSIKYYTDSVKGRFTVSGDNSKNTLFLQMNSLRADDSALYYCVRGGVSGPNSFDLWGQGTTVTVSS VL: DVVMTQSPLSLPVTLGQPASISCRSSQSLVYSDGNTYVNWFQQRPGQSPRRLIYKVSIRASGVPDRFSGSGSGTDFALKISRVEAEDVGVYYCMQGTHWPVTFGQGTKVEIK

Result:
[10.3, 10.4, 10.2]
